# Assay Overview: NCI Yeast Anticancer Drug Screen. Data for the bub3 strain (AID 167)
# Particulars: S. cerevisiae bub3 mutant strain, at 50.0 µM, stronger effect = higher value
# Procedure: Growth inhibition of yeast strains with defined genetic alterations is measured as a screen for potential anti-cancer activity. Selected strains with alterations in DNA damage repair or cell cycle control were exposed to compounds and growth inhibition was measured relative to vehicle treated controls. The strain used in this assay is bub3
The panel holds about 79,000 compounds, 15% with a hit somewhere; the sample as a whole holds those more often. Activity calls are given as the source filed them. No stated cut-off is given here; in the data, active means growth inhibition above about 70%; inactive means the rest.
Below: a set of entries, each annotated with reported growth inhibition.

In the examples that follow, each entry is paired with its recorded growth inhibition.
Cpd Smiles: COc1cc(NCCN2CCOCC2)c([N+](=O)[O-])cc1OC
Assay Result: -0.65% (inactive)

Cpd Smiles: N#CCCN(CCC#N)CCN(CCN(CCC#N)CCC#N)CCN(CCC#N)CCC#N
Assay Result: -15.2% (inactive)

Cpd Smiles: CCCCCCCCCC(=O)OC
Assay Result: -0.25% (inactive)

Cpd Smiles: Cc1ccc(NC(=O)C(=O)Cc2cc[n+]([O-])cc2)cc1
Assay Result: 3.55% (inactive)

Cpd Smiles: CCN=C(N(CC)CC)N(CC)CC
Assay Result: 62.7% (inactive)

// next entry
I would be grateful if you could share the reported growth inhibition for `CCS(=O)O` .
-6.8% (inactive)

###

Below: a set of entries, each annotated with reported growth inhibition.
# Assay Overview: NCI Yeast Anticancer Drug Screen. Data for the mec2-1 strain (AID 157)
# Particulars: S. cerevisiae mec2-1 strain, at 50.0 µM, stronger effect = higher value
About 79,000 compounds went through this panel and 15% of them were active in at least one assay; those are over-represented in the sample as a whole.
Record the value in %, omitting the unit from your answer.

In the examples that follow, each entry is paired with its recorded growth inhibition.
Compound: CCOc1ccc(OCC)c(NC(C)=O)c1
Assay Result: 4.05

Compound: CC(=O)N(C(C)=O)c1ccc2c3c(cccc13)CC2
Assay Result: -3.9

Compound: CC(O)C(O)C(O)CO (stereo unspecified)
Assay Result: 18.4

Compound: C#CCOC(=O)c1ccc(OC(C)=O)cc1
Assay Result: 1.45

Compound: S=c1sc2cscc2s1
Assay Result: 18.6

I would be grateful if you could share the reported growth inhibition for `CCOC(=O)CCC1(CCC(=O)OCC)c2ccccc2-c2ccccc21` .
9

Would you mind doing `O=[N+]([O-])c1ccc2c(c1)/C(=N/O)CCC2` as well?
-0.55

Would you mind doing `CCCCCCCCCCCCCCCC[N+](C)(C)CCN` as well?
50.8

Would you mind doing `CCC[CH2][Ge]([CH2]CCC)([CH2]CCC)[O]C(=O)CCl` as well?
31.7

Would you mind doing `CC(=O)c1cccc(NC(=O)Nc2ccc(Nc3ccccc3)cc2)c1` as well?
6.5

Would you mind doing `CCOC(=O)C1=C(Nc2ccc(F)cc2)C(=O)N(CC)C1` as well?
-15.3

Would you mind doing `CC(=Nc1cc(Cl)cc(Cl)c1)c1ccncc1` as well?
-21.2

Would you mind doing `O=C1C(=Cc2cccnc2)C(=O)c2ccccc21` as well?
15.3

Would you mind doing `Cc1ccc(S(=O)(=O)CCN2CCOCC2)cc1` as well?
-3.15

Would you mind doing CCCC(=O)OCC1OC(n2cc(F)c(=O)[nH]c2=O)CC1O (stereo unspecified) as well?
-4.2

Would you mind doing CC(=O)OC1(C#N)CC2OC1C1N=NN(C(=O)OC(C)(C)C)C21 (stereo unspecified) as well?
2.15

Would you mind doing `Cc1cccc(OCCCCCl)c1` as well?
-9.7

Would you mind doing `N#CCCP(=O)(O)CO` as well?
-13.3

Would you mind doing `COC(=O)CCNc1c(OC)ccc2ccccc12` as well?
3.85

Would you mind doing `CSc1ccc(OC(=O)Nc2cc(Cl)ccc2C)cc1` as well?
14.8

Would you mind doing `CCc1ccc(COC(=O)NC)nc1` as well?
-0.75

###

Below: a set of entries, each annotated with reported growth inhibition.
# Assay Overview: NCI Yeast Anticancer Drug Screen. Data for the cln2 rad14 strain (AID 165);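 further: 0% = growth equal to vehicle treated cultures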
# Particulars: S. cerevisiae cln2 rad14 strain, at 50.0 µM, stronger effect = higher value
The panel holds about 79,000 compounds, 15% with a hit somewhere; the sample as a whole holds those more often. Active and inactive are the calls of the source. No stated cut-off is given here; in the data, active means growth inhibition above about 70%; inactive means the rest.

Molecule: Cc1ccc(-c2nnc(NC(=O)Nc3ccc(Cl)cc3)o2)cc1
Measured Property: growth inhibition
Assay Result: -60.6% (inactive)
//
Molecule: CCCCS(=O)CC(CO)NC(=O)/C=C/c1c(C)[nH]c(=O)[nH]c1=O (configuration not stated)
Measured Property: growth inhibition
Assay Result: 22.1% (inactive)
//
Molecule: CCN(CC)CCOc1ccc(/C(C#N)=C/c2ccc(OCCN3CCCCC3)cc2)cc1
Measured Property: growth inhibition
Assay Result: 64.9% (inactive)
//
Molecule: O=C(N/N=C/c1cc(-c2ccccc2Cl)c(-c2ccccc2Cl)o1)c1ccncc1
Measured Property: growth inhibition
Assay Result: 28% (inactive)
//
Molecule: CC(C)=Cc1cc(C(=O)Nc2ccc(Cl)c(Cl)c2)nc(N)n1
Measured Property: growth inhibition
Assay Result: -0.5% (inactive)
//
Molecule: NC(Cc1c[nH]c2ccc(F)cc12)C(=O)O (configuration not stated)
Measured Property: growth inhibition
Assay Result: -37% (inactive)
//
Molecule: CC(=O)NC(Cc1ccccc1)C(=O)Nc1ccccc1C (configuration not stated)
Measured Property: growth inhibition
Assay Result: 10.6% (inactive)
//
Molecule: NC(Cc1ccc(S(=O)(=O)O)cc1)C(=O)NC(Cc1ccc(S(=O)(=O)O)cc1)C(=O)NC(Cc1ccc(S(=O)(=O)O)cc1)C(=O)O (configuration not stated)
Measured Property: growth inhibition
Assay Result: -9.5% (inactive)

I would be grateful if you could share the reported growth inhibition for O=C(/C=C/CBr)NC(Cc1ccccc1)C(=O)O (configuration not stated) .
-4% (inactive)

Would you mind doing `c1ccc(CNC2Cc3ccccc3C2)cc1` as well?
-36.1% (inactive)

Would you mind doing `Cn1c(=O)c2c(nc(/N=C/c3ccncc3)n2C)n(C)c1=O` as well?
-75.7% (inactive)

Would you mind doing `CC1(C)C(=O)CC[C@]2(C)[C@H]3C(=O)C=C4[C@H]5C[C@@](C)(C(=O)O)CC[C@]5(C)CC[C@@]4(C)[C@]3(C)CC[C@@H]12` as well?
-16.1% (inactive)

###

# Assay Overview: NCI Yeast Anticancer Drug Screen. Data for the sgs1 mgt1 strain (AID 161);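 further: 0% = growth of cultures given vehicle only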
# Particulars: S. cerevisiae sgs1 mgt1 strain, at 50.0 µM, stronger effect = higher value
Compounds without any hit were thinned out: in the full panel of roughly 79,000, 15% have a hit.
Below: a set of entries, each annotated with reported growth inhibition.
Record the value in %, omitting the unit from your answer.

In the examples that follow, each entry is paired with its recorded growth inhibition.
Molecule: BrCCCC1CCCCC1
Assay Result: -13.2
--
Molecule: COc1cc(NCCC(=O)O)c2ncccc2c1
Assay Result: -41.9
--
Molecule: CC12CCC(C1)C(C)(C)/C2=N\O (centres undefined)
Assay Result: 2.55

I would be grateful if you could share the reported growth inhibition for CC(O)C(C)C(N)C(=O)O (centres undefined) .
-1.05

Would you mind doing `CN(Cc1ccccc1)C(=O)/C=C/c1ccccc1` as well?
26.4

###

Below: a set of entries, each annotated with reported growth inhibition.
# Assay Overview: NCI Yeast Anticancer Drug Screen. Data for the cln2 rad14 strain (AID 165);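 further: 0% = growth equal to vehicle treated cultures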
# Particulars: S. cerevisiae cln2 rad14 strain, at 50.0 µM, stronger effect = higher value
The panel holds about 79,000 compounds, 15% with a hit somewhere; the sample as a whole holds those more often.
Record the value in %, omitting the unit from your answer.

In the examples that follow, each entry is paired with its recorded growth inhibition.
Compound: CCN(C(=S)Nc1cccc(C(F)(F)F)c1)c1ccccc1
growth inhibition, %: 13.9
//
Compound: Clc1cnnc(Cl)c1N/N=C/c1ccco1
growth inhibition, %: -43.2
//
Compound: CCCCC(Nc1nncs1)Nc1nncs1
growth inhibition, %: 3.7

I would be grateful if you could share the reported growth inhibition for `COc1ccc([N+](=O)[O-])c2ccc(=O)oc12` .
-0.35

Would you mind doing `CN(C)CCNC(=O)c1cccc(C(=O)Nc2ccccc2)c1[N+](=O)[O-]` as well?
20.4

Would you mind doing `Cc1ccc(S(=O)(=O)N2CCCC(=O)c3ccccc32)cc1` as well?
9.35

Would you mind doing `Clc1ccccc1-c1nnc(-c2cccc(-c3nnc(-c4ccccc4Cl)o3)n2)o1` as well?
-9.1

Would you mind doing `Cc1cc(O)c(C(C)C)cc1S(=O)(=O)O` as well?
-1.5

Would you mind doing CN1C(c2ccccc2)=C(C#N)C(=O)CC(c2ccco2)N1C (configuration not stated) as well?
10.9

Would you mind doing CCCC(C(O)CC)[N+](=O)[O-] (configuration not stated) as well?
5.35

Would you mind doing `Cc1ccc(C(=O)C(c2nc3n(c2O)/C(=N/C(=O)Nc2ccc(Cl)cc2)N=N3)c2nc3n(c2O)/C(=N/C(=O)Nc2ccc(Cl)cc2)N=N3)cc1` as well?
-39

Would you mind doing `CCOc1ccccc1/C=C(/C#N)C(N)=O` as well?
-29.9

Would you mind doing `CC(C)(C)c1nc2c(o1)C(=Nc1ccc(F)cc1)c1ccccc1C2=O` as well?
38.1

Would you mind doing `c1ccc(-c2cc3ccccc3c(-c3ccccc3)c2-c2ccccc2)cc1` as well?
-1.85

Would you mind doing `CN1COc2c(ccc3c4c(ccc23)CN(C)CO4)C1` as well?
-47

Would you mind doing `Nc1ccc(P(=O)(O)c2ccc(N)cc2Br)c(Br)c1` as well?
1.55

Would you mind doing `Nc1ccc(N=Nc2ccccc2)c(N)c1` as well?
-52.1
